The origin of these recorded values is ChEMBL document CHEMBL1137283.

The entries below are paired with their reported inhibition.
Biological target: 11-beta-hydroxysteroid dehydrogenase 1 (Mus musculus) (UniProt P50172)
Sequence (P50172 whole entry, looked up): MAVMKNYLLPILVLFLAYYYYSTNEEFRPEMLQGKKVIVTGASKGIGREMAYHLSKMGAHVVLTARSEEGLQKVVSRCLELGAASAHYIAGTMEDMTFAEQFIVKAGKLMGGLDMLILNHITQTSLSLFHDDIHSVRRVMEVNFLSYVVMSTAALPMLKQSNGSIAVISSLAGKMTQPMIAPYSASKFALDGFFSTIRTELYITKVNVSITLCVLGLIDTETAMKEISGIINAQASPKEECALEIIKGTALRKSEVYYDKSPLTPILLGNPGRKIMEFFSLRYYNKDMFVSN
Assay: Inhibition of DIO mouse liver 11beta-HSD1 at 30 mg/kg 7 hrs post dose
Assay type: organism-based
Parameters: dose 30 mg/kg
Measure: inhibition (%)

Smiles structure	Target of assay	Numeric result
CC(C)(Oc1ccc(Cl)cc1)C(=O)N[C@H]1C2C[C@@H]3C[C@H]1C[C@@](/C(N)=N/O)(C2)C3	11-beta-hydroxysteroid dehydrogenase 1 (Mus musculus) (UniProt P50172)	89
CC(C)(Oc1ccc(Cl)cc1)C(=O)N[C@H]1C2C[C@@H]3C[C@H]1C[C@@](CC(=O)O)(C2)C3	11-beta-hydroxysteroid dehydrogenase 1 (Mus musculus) (UniProt P50172)	40
CC(C)(Oc1ccc(Br)cn1)C(=O)N[C@H]1C2C[C@@H]3C[C@H]1C[C@@](CC(N)=O)(C2)C3	11-beta-hydroxysteroid dehydrogenase 1 (Mus musculus) (UniProt P50172)	57
CC(C)(Oc1ccc(Cl)cc1)C(=O)N[C@H]1C2C[C@@H]3C[C@H]1C[C@@](CCC(=O)O)(C2)C3	11-beta-hydroxysteroid dehydrogenase 1 (Mus musculus) (UniProt P50172)	99
CC(C)(Oc1ccc(Cl)cc1)C(=O)N[C@H]1C2C[C@@H]3C[C@H]1C[C@@](Cc1nnn[nH]1)(C2)C3	11-beta-hydroxysteroid dehydrogenase 1 (Mus musculus) (UniProt P50172)	62

###

Target: 11-beta-hydroxysteroid dehydrogenase 1 (Homo sapiens, UniProt P28845)
Sequence (P28845 whole entry): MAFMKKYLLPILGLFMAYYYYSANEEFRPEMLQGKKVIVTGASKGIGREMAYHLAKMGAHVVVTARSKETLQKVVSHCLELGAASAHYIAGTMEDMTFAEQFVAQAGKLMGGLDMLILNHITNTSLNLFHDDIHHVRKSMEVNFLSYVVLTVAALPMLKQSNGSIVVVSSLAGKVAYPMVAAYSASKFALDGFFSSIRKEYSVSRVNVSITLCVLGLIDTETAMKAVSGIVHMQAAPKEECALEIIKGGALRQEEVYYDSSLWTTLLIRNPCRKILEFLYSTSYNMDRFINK
Assay: Inhibition of human 11beta-HSD1 expressed in Escherichia coli
The entries below are paired with their reported IC50.

Smiles structure	Target of assay	Unit spec	IC50
CC(C)(C(=O)N[C@H]1C2C[C@@H]3C[C@H]1C[C@@](CC(N)=O)(C2)C3)c1ccc(C#N)cn1	11-beta-hydroxysteroid dehydrogenase 1 (Homo sapiens, UniProt P28845)	µM	0.014
CC(C)(Oc1ccc(N2CCOCC2)cn1)C(=O)N[C@H]1C2C[C@@H]3C[C@H]1C[C@@](CC(N)=O)(C2)C3	11-beta-hydroxysteroid dehydrogenase 1 (Homo sapiens, UniProt P28845)	µM	0.044
CC(C)(Oc1ccc(Cl)cc1)C(=O)N[C@H]1C2C[C@@H]3C[C@H]1C[C@@](c1nc(C#N)c(N)o1)(C2)C3	11-beta-hydroxysteroid dehydrogenase 1 (Homo sapiens, UniProt P28845)	µM	0.146

###

Assay: Half life in mouse plasma at 10 mg/kg
Format: ADME, organism-based
Parameters: dose 10 mg/kg
The entries below are paired with their reported half-life.

Smiles structure	half-life [h]
CC(C)(Oc1ccc(Cl)cc1)C(=O)N[C@H]1C2C[C@@H]3C[C@H]1C[C@@](Cc1nnn[nH]1)(C2)C3	2.3
CC(C)(Oc1ccc(Cl)cc1)C(=O)N[C@H]1C2C[C@@H]3C[C@H]1C[C@@](CCC(=O)O)(C2)C3	2.6
CC(C)(Oc1ccc(Cl)cc1)C(=O)N[C@H]1C2C[C@@H]3C[C@H]1C[C@@](CC(=O)O)(C2)C3	2
CC(C)(Oc1ccc(Cl)cc1)C(=O)N[C@H]1C2C[C@@H]3C[C@H]1C[C@@](/C(N)=N/O)(C2)C3	0.4

###

The entries below are paired with their reported remaining at 0.5 h.
Test: Stability in mouse liver microsomes after 30 min
Format: ADME, Microsome
Conditions: read-out: Stability

Smiles structure	Unit spec	remaining at 0.5 h
CC(C)(Oc1ccc(Br)cn1)C(=O)N[C@H]1C2C[C@@H]3C[C@H]1C[C@@](CC(N)=O)(C2)C3	%	87
CNc1ccc(C(C)(C)C(=O)N[C@H]2C3C[C@@H]4C[C@H]2C[C@@](CC(N)=O)(C3)C4)cn1	%	83
CC(C)(C(=O)N[C@H]1C2C[C@@H]3C[C@H]1C[C@@](CC(N)=O)(C2)C3)c1ccc(C#N)cn1	%	100
CC(C)(Oc1ccc(Cl)cc1)C(=O)N[C@H]1C2C[C@@H]3C[C@H]1C[C@@](/C(N)=N/O)(C2)C3	%	64
CC(C)(Oc1ccc(Cl)cc1)C(=O)N[C@H]1C2C[C@@H]3C[C@H]1C[C@@](c1nc(C#N)c(N)o1)(C2)C3	%	25
CC(C)(Oc1ccc(-n2cccn2)cn1)C(=O)N[C@H]1C2C[C@@H]3C[C@H]1C[C@@](CC(N)=O)(C2)C3	%	83
CC(C)(Oc1ccc(Cl)cc1)C(=O)N[C@H]1C2C[C@@H]3C[C@H]1C[C@@](c1ncc[nH]1)(C2)C3	%	3
CC(C)(Oc1ccc(Cl)cc1)C(=O)N[C@H]1C2C[C@@H]3C[C@H]1C[C@@](CC(=O)O)(C2)C3	%	94
CC(C)(Oc1ccc(Cl)cc1)C(=O)N[C@H]1C2C[C@@H]3C[C@H]1C[C@@](c1nnc(N)[nH]1)(C2)C3	%	41
CC(C)(Oc1ccc(Cl)cc1)C(=O)N[C@H]1C2C[C@@H]3C[C@H]1C[C@@](CCC(=O)O)(C2)C3	%	78
CC(C)(Oc1ccc(Cl)cc1)C(=O)N[C@H]1C2C[C@@H]3C[C@H]1C[C@@](Cc1nnn[nH]1)(C2)C3	%	79
CC(C)(Oc1ccc(Cl)cc1)C(=O)N[C@H]1C2C[C@@H]3C[C@H]1C[C@@](c1ccno1)(C2)C3	%	30
CC(C)(Oc1ccc(N2CCOCC2)cn1)C(=O)N[C@H]1C2C[C@@H]3C[C@H]1C[C@@](CC(N)=O)(C2)C3	%	89
